Tested on: SN12C renal
EXPERIMENT_DESCRIPTION: NCI tumour cell line growth inhibition, 48 h; in the data active = GI50 below about 0.43 µM; inactive = the rest
# output must be one of T (active), F (inactive)

Look over these answered cases.
CN1CCN(Cc2ccc(NC(=O)c3cncc(C#Cc4c(N)ncc5ccc(C#N)cc45)c3)cc2C(F)(F)F)CC1    F
CCCCCCC1N=C(N)N=C(N)N1c1cccc(Cl)c1 (centres undefined)    F
CN1CCN(C(=O)[C@@]2(C)CC[C@]3(C)CC[C@]4(C)C(=CC[C@@H]5[C@@]6(C)CCC(=O)NC(C)(C)[C@@H]6CC[C@]54C)[C@@H]3C2)CC1    F

Kindly review the next compound as well.
Prompt: Please indicate how the test categorized CN1CC=C(c2cc(NC(=O)Nc3ccc(Oc4ccnc(NC(=O)C5CC5)c4)c(F)c3)cc(C(F)(F)F)c2)CC1 .
Completion: T
